Where do the numbers come from? From patent US8022099B2.

biological target: UniProt P29371; assay: [3H]SR142801 competition binding assay; details: hNK3 receptor binding, [3H]SR142801, membranes from HEK293 cells transiently expressing recombinant human NK3 receptor
pKi: −log10 of the molar value.
Readout Label: pKi

Example results:
- Compound: "CN(Cc1ccc(C(F)(F)F)c(F)c1)[C@H]1CN(C(=O)CCCCN2CCOCC2)C[C@@H]1c1cccc(Cl)c1 (racemic)"
  pKi: 7.09
- Compound: "CC(=O)NC1CCN(CC(=O)N2C[C@H](c3ccc(Cl)c(Cl)c3)[C@@H](N(C)Cc3ccc(C(F)(F)F)c(F)c3)C2)CC1 (racemic)"
  pKi: 8.06

1: CN(Cc1ccc(C(F)(F)F)c(F)c1)[C@H]1CN(C(=O)CN2CCC(N(C)S(C)(=O)=O)CC2)C[C@@H]1c1ccc(Cl)c(Cl)c1 (racemic)
2: CN(Cc1ccc(C(F)(F)F)c(F)c1)[C@H]1CN(C(=O)N2CCN(S(=O)(=O)N(C)C)CC2)C[C@@H]1c1ccc(Cl)c(Cl)c1 (racemic)
3: CC(=O)N(C)C1CCN(CC(=O)N2C[C@H](c3ccc(Cl)c(Cl)c3)[C@@H](N(C)Cc3ccc(C(F)(F)F)c(F)c3)C2)CC1 (racemic)
4: CN(Cc1ccc(C#N)cc1)[C@H]1CN(C(=O)N2CCN(S(C)(=O)=O)CC2)C[C@@H]1c1ccc(Cl)cc1 (racemic)
Ask: // smallest pKi at index 0, largest at the end Please, when replying, give the labels in the order that was requested.
Result: 4, 3, 1, 2

====

target: human NK3 receptor (Homo sapiens, UniProt P29371); experiment: [3H]SR142801 competition binding assay; settings: hNK3 receptor binding, [3H]SR142801, membranes from HEK293 cells transiently expressing recombinant human NK3 receptor
Readout Label: Ki (µM)

Example results:
- Compound: "CN(Cc1ccc(C(F)(F)F)c(F)c1)[C@H]1CN(C(=O)CN2CCN(S(C)(=O)=O)CC2)C[C@@H]1c1ccc(Cl)c(Cl)c1 (racemic)"
  Readout Label: "Ki"
  Reported Value: 0.013
- Compound: "CN(Cc1ccc(C(F)(F)F)c(F)c1)[C@H]1CN(C(=O)N2CCN(c3ccc(C#N)cc3)CC2)C[C@@H]1c1ccc(Cl)c(Cl)c1 (racemic)"
  Readout Label: "Ki"
  Reported Value: 0.0027

a: C[C@H]1CN(CC(=O)N2C[C@H](c3ccc(Cl)c(Cl)c3)[C@@H](N(C)Cc3ccc(C(F)(F)F)c(F)c3)C2)CCN1 (mixture of isomers)
b: CN(Cc1ccc(C(F)(F)F)c(F)c1)[C@H]1CN(C(=O)N2CCN(S(C)(=O)=O)CC2)C[C@@H]1c1ccccc1 (racemic)
c: CN(Cc1ccc(C(F)(F)F)c(F)c1)[C@H]1CN(C(=O)N2CCN(CCC#N)CC2)C[C@@H]1c1ccc(Cl)c(Cl)c1 (racemic)
d: CC1CN(CC(=O)N2C[C@H](c3ccc(Cl)c(Cl)c3)[C@@H](N(C)Cc3ccc(C(F)(F)F)c(F)c3)C2)CC(C)O1 (mixture of isomers)
Ask: Rank entries according to their Ki, from the largest number down. Please, when replying, give the labels in the order that was requested.
Result: b, a, d, c
(b: 0.0909 µM, a: 0.0479 µM, d: 0.0197 µM, c: 0.0019 µM)

====

Target: human NK3 receptor (Homo sapiens, UniProt P29371)
Sequence (P29371 1-465): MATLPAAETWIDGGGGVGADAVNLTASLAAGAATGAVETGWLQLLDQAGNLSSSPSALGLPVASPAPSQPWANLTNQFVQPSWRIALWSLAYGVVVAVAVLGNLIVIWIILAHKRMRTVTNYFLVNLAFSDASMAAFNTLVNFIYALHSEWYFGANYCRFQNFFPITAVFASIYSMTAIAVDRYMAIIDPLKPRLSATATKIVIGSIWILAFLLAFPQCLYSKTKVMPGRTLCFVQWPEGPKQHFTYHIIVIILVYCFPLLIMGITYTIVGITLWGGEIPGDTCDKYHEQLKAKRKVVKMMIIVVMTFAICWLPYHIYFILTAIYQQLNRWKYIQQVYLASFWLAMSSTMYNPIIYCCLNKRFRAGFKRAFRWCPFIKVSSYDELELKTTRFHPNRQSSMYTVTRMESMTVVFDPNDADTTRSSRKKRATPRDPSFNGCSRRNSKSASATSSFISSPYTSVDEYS
Test: [3H]SR142801 competition binding assay
Conditions: hNK3 receptor binding, [3H]SR142801, membranes from HEK293 cells transiently expressing recombinant human NK3 receptor
Procedure: [^3H]SR142801 Competition Binding Assay hNK3 receptor binding experiment were performed using [^3H]SR142801 (Catalog No. TRK1035, specific activity: 74.0 Ci/mmol, Amersham, GE Healthcare UK limited, Buckinghamshire, UK) and membrane isolated from HEK293 cells transiently expressing recombinant human NK3 receptor. […] Nonspecific binding was measured in the presence of 10 μM SB222200 for both radioligands. […]
Readout Label: Ki (nM)

Example results:
- Molecule: "CN(Cc1ccc(C(F)(F)F)cc1)[C@H]1CN(C(=O)N2CCN(S(C)(=O)=O)CC2)C[C@@H]1c1ccc(Cl)c(Cl)c1 (racemic)"
  Reported Value: 6
- Molecule: "CN(C)CCN1CCN(CC(=O)N2C[C@H](c3ccc(Cl)c(Cl)c3)[C@@H](N(C)Cc3ccc(C(F)(F)F)c(F)c3)C2)CC1 (racemic)"
  Reported Value: 19.3
- Molecule: "CN(C)CCCCC(=O)N1C[C@H](c2ccc(Cl)c(Cl)c2)[C@@H](N(C)Cc2ccc(C(F)(F)F)c(F)c2)C1 (racemic)"
  Reported Value: 51.2

1: CN(Cc1ccc(C(F)(F)F)c(F)c1)[C@H]1CN(C(=O)CCCCC(N)=O)C[C@@H]1c1ccc(Cl)c(Cl)c1 (racemic)
2: Cc1cc(CN(C)[C@H]2CN(C(=O)N3CCN(S(C)(=O)=O)CC3)C[C@@H]2c2ccc(Cl)c(Cl)c2)ccc1F (racemic)
3: CN(Cc1ccc(C(F)(F)F)c(F)c1)[C@H]1CN(C(=O)CN2CCC(N3CCOCC3=O)CC2)C[C@@H]1c1ccc(Cl)c(Cl)c1 (racemic)
Ask: // smallest Ki at index 0, largest at the end Please, when replying, give the labels in the order that was requested.
Result: 3, 1, 2
